meta.source: PubChem BioAssay

Task for the reader: assign each of the following compounds its reported inhibition.
Assay: growth suppression of yeast trafficking mutant, preliminary HTS, modulators of trafficking downstream of Golgi apparatus project, 1536-format plate, OD 615 nm (AID 637); note: test concentration not given here
Conditions: yeast transport mutant growth, absorbance 615 nm, 18 h; active compounds read high
# output: bare number, implied unit %

The compound listed as CC1(C)CC(=O)C2=C(C1)OC(N)=C(C#N)C2C1CC=CCC1 (stereo not given) shows inhibition equal to -2.22

In plain terms, Cn1c(SC/C=C/c2ccccc2)nnc1-c1cnccn1 has a documented inhibition of -5.48

ON1C2CCCCC2N(O)C1c1c(F)c(F)c(F)c(F)c1F (stereo not given) has a reported inhibition of -0.97

Briefly, inhibition measured for CCn1nc(CC(=O)Nc2nnc(CC(=O)N3CCCCC3)s2)c2ccccc2c1=O : -4.83

response.value for CCc1ccc(NC(=O)CSc2nnc(Cc3cccn3C)n2-c2ccc(OC)cc2)cc1 (field: inhibition) = 4.5

For record N#C/C(C(=O)N1CCOCC1)=C1/SC(Cc2ccccc2)C(=O)N1c1ccccc1 (stereo not given) the listed inhibition is -4.91

For CCOc1cc(NC(=O)c2ccco2)c(OCC)cc1NC(=O)Cc1cccc(OC)c1 the compound record lists inhibition as -6.39

Quick note, inhibition for C=CCn1c(=O)/c(=C/c2ccc(O)cc2)s/c1=C(/C#N)c1nnc2n1CCCCC2 landed at -2.83

Briefly, inhibition measured for CCN(CC)c1ccc(NC(=O)c2[nH]c(C)c(C(C)=O)c2C)c(C)c1 : -8.06

GET /value?item= Cc1ccc2c(Cl)cc(Cl)c(OCc3c(C)noc3C)c2n1 &field=inhibition returns 13.3
